Source of measurements: patent US9546153B2

- Test system: TLR2 induced IL-6 in peripheral blood mononuclear cells (PBMCs)
- PROTOCOL DESCRIPTION: PBMC TLR2 Induced IL-6 Assay
- Assay type: cell-based, human
- ASSAY SETUP: Homo sapiens, PBMC, 5 h, human PBMCs, 10 μg/ml lipoteichoic acid for 5 hours, IL-6 by ELISA; value without asterisk; read-out: Cell IC50
pIC50: −log10 of the molar value.
Would you mind labelling by pIC50? At or over 6 is criterion met, under is criterion not met.

Exercise: hey, is pIC50 for this one >= 6? CC(C)(O)[C@H](F)CNC(=O)c1cnc(Nc2ccn3nccc3c2)cc1NCCC1CC1 [Example 292]
Solution: criterion met

Exercise: hey, is pIC50 for this one >= 6? CNC(=O)[C@H]1CC[C@H](NC(=O)c2cnc(Nc3ccc4ncsc4c3)cc2NC(C)C)C1 [Example 221]
Solution: criterion met

Exercise: hey, is pIC50 for this one >= 6? CC(C)(O)[C@H](F)CNC(=O)c1cnc(Nc2ccc3ncsc3c2)cc1N[C@@H](c1cc(F)cc(F)c1)[C@H](O)CO [Example 65]
Solution: criterion met

Exercise: hey, is pIC50 for this one >= 6? CC(C)Nc1cc(Nc2nc3ccnn3cc2F)ncc1C(=O)NC1CCC(C(C)(C)O)CC1 (stereo not shown) [Example 457]
Solution: criterion not met

Exercise: hey, is pIC50 for this one >= 6? CC(C)(O)[C@H](F)CNC(=O)c1cnc(Nc2ccc3ncoc3c2)cc1N[C@@H]1CCC[C@H]1O [Example 336]
Solution: criterion met

Exercise: hey, is pIC50 for this one >= 6? CC(C)(O)C1CC(Nc2cc(Nc3ccc4ncsc4c3)ncc2C(=O)NC[C@@H](F)C(C)(C)O)C1 (stereo partly shown) [Example 64]
Solution: criterion met

---

- Tested on: TLR2 induced IL-6 in peripheral blood mononuclear cells (PBMCs)
- PROTOCOL DESCRIPTION: PBMC TLR2 Induced IL-6 Assay
- Type: cell-based, human
- ASSAY SETUP: Homo sapiens, PBMC, 5 h, human PBMCs, 10 μg/ml lipoteichoic acid for 5 hours, IL-6 by ELISA; value without asterisk; read-out: Cell IC50
Can you tell me pIC50 for the items I'm about to list?
Conceptually, pIC50 converts a concentration in mol/L into minus its log10.

Exercise: // fetch pIC50 given entry CC(C)Nc1cc(Nc2ccc3ncsc3c2)ncc1C(=O)NCC[C@H](C)NC(=O)CC(C)(C)O
Solution: 6.27

Exercise: // fetch pIC50 given entry CC(C)Nc1cc(Nc2ccc3ncsc3c2)ncc1C(=O)NC12CCC(N)(CC1)C2
Solution: 6.55

Exercise: // fetch pIC50 given entry CC(C)Nc1cc(Nc2ccc3ncsc3c2)ncc1C(=O)NCC[C@@H](C)NC(=O)c1ccccc1
Solution: 6.21

Exercise: // fetch pIC50 given entry CC(C)Nc1cc(Nc2ccc3ncsc3c2)ncc1C(=O)N[C@H]1CC[C@H](NC(=O)c2cccnc2)CC1
Solution: 6.81

Exercise: // fetch pIC50 given entry CC(C)Nc1cc(Nc2nc3scnc3cc2F)ncc1C(=O)NC[C@@H](F)C(C)(C)O
Solution: 6.24

Exercise: // fetch pIC50 given entry CC(C)(O)[C@H](F)CNC(=O)c1cnc(Nc2ccc3ncoc3c2)cc1NCC(F)(F)F
Solution: 6.14

Exercise: // fetch pIC50 given entry Cc1nn2ccc(Nc3cc(NCC(C)(C)F)c(C(=O)NC[C@@H](F)C(C)(C)O)cn3)cc2c1F
Solution: 6.53

Exercise: // fetch pIC50 given entry CC(C)(O)[C@H](F)CNC(=O)c1cnc(Nc2ccn3nccc3n2)cc1Nc1ccc(S(C)(=O)=O)cc1
Solution: 6.71

Exercise: // fetch pIC50 given entry CC(C)(O)[C@H](F)CNC(=O)c1cnc(Nc2ccc3ncncc3c2)cc1NC1CC1
Solution: 7.00

Exercise: // fetch pIC50 given entry CC(C)(O)[C@H](F)CNC(=O)c1cnc(Nc2ccc3ncsc3c2)cc1NCCN1CCOCC1
Solution: 6.41

Exercise: // fetch pIC50 given entry CC(C)Nc1cc(Nc2ccc3ncsc3c2)ncc1C(=O)N[C@H]1CC[C@H](NC(=O)c2ccncc2)CC1
Solution: 6.80

Exercise: // fetch pIC50 given entry CC(C)CNc1cc(Nc2ccn3nccc3c2)ncc1C(=O)NC[C@@H](F)C(C)(C)O
Solution: 6.30

Exercise: // fetch pIC50 given entry CC(C)(O)[C@H](F)CNC(=O)c1cnc(Nc2ccc3ncsc3c2)cc1NCC(F)(F)F
Solution: 6.30

Exercise: // fetch pIC50 given entry CC(C)(O)[C@H](F)CNC(=O)c1cnc(Nc2ccc3ncc(C#N)cc3n2)cc1NC1CCCOC1 (stereo partly shown)
Solution: 6.97

Exercise: // fetch pIC50 given entry CC(F)CNc1cc(Nc2ccc3ncsc3c2)ncc1C(=O)NC[C@@H](F)C(C)(C)O (stereo partly shown)
Solution: 6.66

Exercise: // fetch pIC50 given entry CC(C)Nc1cc(Nc2ccn3ncc(Cl)c3c2)ncc1C(=O)NC[C@@H](F)C(C)(C)O
Solution: 6.35

Exercise: // fetch pIC50 given entry CC(C)(F)CNc1cc(Nc2ccc3ncc(C#N)cc3n2)ncc1C(=O)NC[C@@H](F)C(C)(C)O
Solution: 6.37

Exercise: // fetch pIC50 given entry CC(C)(O)[C@H](F)CNC(=O)c1cnc(Nc2ccc3ncsc3c2)cc1NCc1ccc(Cl)cc1
Solution: 6.28

Exercise: // fetch pIC50 given entry CCNc1cc(Nc2ccc3ncsc3n2)ncc1C(=O)NC[C@@H](F)C(C)(C)O
Solution: 7.09

Exercise: // fetch pIC50 given entry CC(C)(O)[C@H](F)CNC(=O)c1cnc(Nc2ccc3ccncc3c2)cc1NC1CC1
Solution: 6.46

Exercise: // fetch pIC50 given entry CC(C)Nc1cc(Nc2ccc3ncc(Cl)cc3n2)ncc1C(=O)NC[C@@H](F)C(C)(C)O
Solution: 6.57

Exercise: // fetch pIC50 given entry CC(C)Nc1cc(Nc2ccc3ncsc3c2)ncc1C(=O)NC1CCCC(C(C)(C)O)C1 (stereo not shown)
Solution: 6.25

Exercise: // fetch pIC50 given entry CC(C)(O)c1cnc(Nc2cc(Nc3nc4ccnn4cc3F)ncc2C(=O)NC[C@@H](F)C(C)(C)O)s1
Solution: 6.08

Exercise: // fetch pIC50 given entry CC(C)(O)[C@H](F)CNC(=O)c1cnc(Nc2nc3ccnn3cc2F)cc1NC1CCCCC1F (stereo partly shown)
Solution: 6.33

Exercise: // fetch pIC50 given entry CC(C)(O)[C@H](F)CNC(=O)c1cnc(Nc2ncc3ncccc3n2)cc1N[C@@H]1CCC[C@@H]1F
Solution: 7.03

Exercise: // fetch pIC50 given entry CC(C)(O)[C@H](F)CNC(=O)c1cnc(Nc2ccc3ncccc3n2)cc1NC1CCOCC1
Solution: 6.99

Exercise: // fetch pIC50 given entry CC(C)(O)[C@H](F)CNC(=O)c1cnc(Nc2ccc3nonc3c2)cc1NC1CCC1
Solution: 6.78

Exercise: // fetch pIC50 given entry CC(C)Nc1cc(Nc2ccc3ncsc3c2)ncc1C(=O)NCCc1ccc(C(N)=O)cc1
Solution: 6.14

Exercise: // fetch pIC50 given entry CC(C)(O)[C@H](F)CNC(=O)c1cnc(Nc2ccn3nccc3c2)cc1NCC1CC1
Solution: 6.22

Exercise: // fetch pIC50 given entry CC(C)(O)[C@H](F)CNC(=O)c1cnc(Nc2ccc3ncsc3c2)cc1Nc1cccc(CCO)c1
Solution: 7.00

Exercise: // fetch pIC50 given entry CCNc1cc(Nc2cc3scnc3cc2F)ncc1C(=O)NC[C@@H](F)C(C)(C)O
Solution: 5.92
